# System: Sorghum
# measurement_protocol: Greenhouse safening test: % plant inhibition of sorghum by herbicide with and without safener
# Type: in vivo
# run_conditions: H-1 (alachlor) 2.2 kg/ha plus safener 9.0 kg/ha; approx. 21 days; left-hand figure
quantity_measured: % Plant Inhibition, Sorghum (herbicide plus safener) (%)
Write the value in % as a bare number.

The following compounds have reported results that may help.
[[record]]
chemical_structure = "Cc1ccnc(SC2(C#N)CC2)n1"
value_unit = "%"
val = 95

[[record]]
chemical_structure = "Cn1ccnc1SC1(C#N)CC1"
value_unit = "%"
val = 20


Tell me reported % Plant Inhibition, Sorghum (herbicide plus safener) for Cn1c(SC2(C#N)CC2)nnc1C(F)(F)F , tested with Sorghum.
100

Form field - read-out: % Plant Inhibition, Sorghum (herbicide plus safener); system: Sorghum; submitted item: N#CC1(Sc2nc(-c3ccccc3)cs2)CC1
45
